- system: IDH1-R132H (Homo sapiens, UniProt O75874, R132H)
- Sequence (O75874 whole entry R132H): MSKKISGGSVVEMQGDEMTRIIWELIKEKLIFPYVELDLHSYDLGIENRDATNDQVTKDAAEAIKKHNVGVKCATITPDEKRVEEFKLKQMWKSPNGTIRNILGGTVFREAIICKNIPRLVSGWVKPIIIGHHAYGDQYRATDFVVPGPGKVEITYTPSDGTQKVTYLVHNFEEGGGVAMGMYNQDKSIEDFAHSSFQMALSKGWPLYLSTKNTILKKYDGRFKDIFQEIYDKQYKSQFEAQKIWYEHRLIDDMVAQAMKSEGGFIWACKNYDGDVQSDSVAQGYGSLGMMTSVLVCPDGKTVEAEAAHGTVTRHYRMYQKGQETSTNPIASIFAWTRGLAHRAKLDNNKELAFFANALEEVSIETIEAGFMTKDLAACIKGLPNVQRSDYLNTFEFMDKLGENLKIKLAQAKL
- experiment_description: Mutant IDH1 inhibition assay with purified enzyme
- Type: biochemical
- condition_notes: read-out: maximal enzyme inhibition (inhibitory efficiency), purified IDH1-R132H enzyme, tested range 0.19 – 392 µM
measured_parameter: inhibition at 392 µM

| compound | value |
| --- | --- |
| CCCCc1ccc(NS(=O)(=O)c2ccc(C)c(C(=O)N3CCN(c4ccccc4OC)CC3)c2)cc1 [Compound A, reference compound] | ~100% |
| CCCCc1ccc(NS(=O)(=O)c2ccc(C)c(C(=O)N3CCN(c4ccccc4I)CC3)c2)cc1 | ~100% |
| CCCCc1ccc(NS(=O)(=O)c2ccc(C)c(C(=O)N3CCN(c4ccc(OCCF)cc4)CC3)c2)cc1 | ~30% |
| COc1ccccc1N1CCN(C(=O)c2cc(S(=O)(=O)Nc3ccc(CCCF)cc3)ccc2C)CC1 | 99% |
| CCCCc1ccc(NS(=O)(=O)c2ccc(C)c(C(=O)N3CCN(c4ccccc4OCCF)CC3)c2)cc1 | ~100% |
| COc1ccccc1N1CCN(C(=O)c2cc(S(=O)(=O)Nc3ccc(CCCCF)cc3)ccc2C)CC1 | 81% |

###

- system: IDH1-R132H (Homo sapiens, UniProt O75874, R132H)
- experiment_description: Mutant IDH1 inhibition assay with purified enzyme
- condition_notes: IC50 against the mutant IDH1, purified IDH1-R132H enzyme, 0.19 – 392 µM

| compound | reading_unit | IC50 |
| --- | --- | --- |
| COc1ccccc1N1CCN(C(=O)c2cc(S(=O)(=O)Nc3ccc(CCCF)cc3)ccc2C)CC1 [Compound 6] | nM | 2700 |
| CCCCc1ccc(NS(=O)(=O)c2ccc(C)c(C(=O)N3CCN(c4ccccc4OC)CC3)c2)cc1 [Compound A, reference compound] | nM | 2200 |
| COc1ccccc1N1CCN(C(=O)c2cc(S(=O)(=O)Nc3ccc(CCCCF)cc3)ccc2C)CC1 [Compound 7] | nM | 2400 |
| CCCCc1ccc(NS(=O)(=O)c2ccc(C)c(C(=O)N3CCN(c4ccc(OCCF)cc4)CC3)c2)cc1 [Compound 5] | nM | 1200 |
